Attribution: ChEMBL document CHEMBL3046821

# Test system: Plutella xylostella
# assay.text: Insecticidal activity against Plutella xylostella (diamondback moth) fourth-instar larvae fed on cabbage leaves soaked in compound solutions measured 48 hr post compound treatment by leaf-dipping method
# Format: functional
Residues, ends and D or L forms follow the SMILES beside them.
// boundary case: LC50 equal to 6000 µg/mL maps to False; strictly smaller maps to True

c1ccc2[nH]ccc2c1 [INDOLE] | False
O=C(O)[C@H](Cc1ccc(O)cc1)NC(=O)[C@@H]1CCCN1 (H-Pro-Tyr-OH) | False
CC(=O)N[C@@H](Cc1ccccc1)C(=O)NCC(=O)N[C@H](C(=O)O)C(C)C (Ac-Phe-Gly-Val-OH) | False
O=C1Cc2ccccc2N1 [OXINDOLE] | True

Kindly consider the entry below.
I wonder whether O=C(O)CCc1ccc(O)cc1 [HYDROXYPHENYL PROPIONIC ACID] has LC50 below 6000 µg/mL. Can you tell?
False

* * *

# assay.text: Inhibition of PLA2 in hemocytes of Spodoptera exigua fifth-instar larvae using pyrene-labeled phospholipid substrate by spectrofluorometry
# Format: cell-based
# condition.parameters: read-out: I50
Residues, ends and D or L forms follow the SMILES beside them.
# note: exactly 60 µM is not below, so it is Condition not met; use Condition met for IC50 strictly under it

O=C1N[C@@H](Cc2ccc(O)cc2)C(=O)N2CCC[C@@H]12 | Condition met
c1ccc2[nH]ccc2c1 | Condition not met
CC(=O)N[C@@H](Cc1ccccc1)C(=O)NCC(=O)N[C@H](C(=O)O)C(C)C (Ac-Phe-Gly-Val-OH) | Condition not met
O=C(O)CCc1ccc(O)cc1 [HYDROXYPHENYL PROPIONIC ACID] | Condition met
O=C(O)[C@H](Cc1ccc(O)cc1)NC(=O)[C@@H]1CCCN1 (H-Pro-Tyr-OH) | Condition not met

Strictly below 60 µM in IC50? O=C1Cc2ccccc2N1
Condition met
